# Tested on: Macaca fascicularis PRLR (mfPRLR.mmh; SEQ ID NO:403)
# Sequence (as listed by the source): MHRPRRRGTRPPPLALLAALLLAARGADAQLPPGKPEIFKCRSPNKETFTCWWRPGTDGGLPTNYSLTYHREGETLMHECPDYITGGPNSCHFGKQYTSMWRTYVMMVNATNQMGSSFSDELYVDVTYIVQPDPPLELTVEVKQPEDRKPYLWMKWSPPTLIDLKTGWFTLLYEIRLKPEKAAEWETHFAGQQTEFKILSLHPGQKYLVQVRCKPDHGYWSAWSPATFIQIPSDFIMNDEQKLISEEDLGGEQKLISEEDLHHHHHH
# protocol_summary: Surface plasmon resonance (Biacore T200), antibody-capture format
# Type: binding
# stated_conditions: 37° C., analyte mfPRLR.mmh
endpoint_name: ka (M/s)
Note: unit M/s is implicit; provide only the numeric part.

Data request, read-out ka, for H1H6960N: anti-PRLR antibody, human IgG1 Fc form of H2M6960N of Table 1; HCVR/LCVR SEQ ID NOs 322/330 (antibody, V domains shown, human IgG1 Fc) VH: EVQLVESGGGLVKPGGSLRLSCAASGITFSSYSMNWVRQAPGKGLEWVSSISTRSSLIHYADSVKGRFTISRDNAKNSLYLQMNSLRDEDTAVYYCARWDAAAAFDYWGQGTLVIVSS VL: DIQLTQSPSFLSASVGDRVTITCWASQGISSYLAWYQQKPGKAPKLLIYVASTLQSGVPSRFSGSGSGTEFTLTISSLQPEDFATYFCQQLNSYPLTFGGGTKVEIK
86400
